Target: rNHE3 (Rattus norvegicus, UniProt P26433)
Sequence (P26433 29-831): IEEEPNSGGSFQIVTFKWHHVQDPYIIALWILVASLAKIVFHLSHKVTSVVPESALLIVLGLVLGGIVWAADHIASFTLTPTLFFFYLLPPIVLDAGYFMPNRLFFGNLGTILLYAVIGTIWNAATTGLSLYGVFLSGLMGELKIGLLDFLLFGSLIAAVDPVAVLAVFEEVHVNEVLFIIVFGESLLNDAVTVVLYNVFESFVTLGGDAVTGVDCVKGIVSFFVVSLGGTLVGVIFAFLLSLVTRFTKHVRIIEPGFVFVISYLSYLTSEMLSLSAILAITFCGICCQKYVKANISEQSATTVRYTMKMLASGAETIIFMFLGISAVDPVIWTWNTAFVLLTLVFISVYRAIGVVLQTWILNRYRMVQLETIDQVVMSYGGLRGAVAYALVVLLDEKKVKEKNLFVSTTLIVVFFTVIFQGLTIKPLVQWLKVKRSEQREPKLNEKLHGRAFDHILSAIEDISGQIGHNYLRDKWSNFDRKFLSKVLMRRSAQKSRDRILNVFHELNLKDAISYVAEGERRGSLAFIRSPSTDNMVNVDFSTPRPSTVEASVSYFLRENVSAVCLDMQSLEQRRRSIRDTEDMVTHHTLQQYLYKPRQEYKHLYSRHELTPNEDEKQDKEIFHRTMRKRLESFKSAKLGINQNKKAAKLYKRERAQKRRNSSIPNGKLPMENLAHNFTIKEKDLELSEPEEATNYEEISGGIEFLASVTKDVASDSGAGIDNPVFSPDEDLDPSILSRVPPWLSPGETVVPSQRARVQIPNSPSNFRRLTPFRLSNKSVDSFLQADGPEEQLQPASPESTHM
Test: recovery of the intracellular pH (pHi) after acidification, BCECF fluorescence, NHE inhibition
Type: cell-based
Conditions: pH recovery recorded for three minutes in the case of NHE3; bicarbonate-free conditions
Counter-ions that a name gives are not always drawn.
Measurement Kind: IC50 (µM)
Value expressed in µM; do not type the unit.

FC(F)(F)c1ccccc1Nc1nc2ccccc2[nH]1 [Example 17, trifluoroacetate]
3.5
Fc1cccc(Cl)c1Nc1nc2ccccc2[nH]1 [Example 7, hydrochloride]
0.52
Fc1cc2nc(Nc3c(Cl)cccc3Cl)[nH]c2cc1F [Example 5, hydrochloride]
0.78
Cl.Fc1cccc2nc(Nc3c(Cl)cccc3Cl)[nH]c12 [Example 10, hydrochloride]
3.2
Fc1c(F)c(F)c2[nH]c(Nc3c(Cl)cccc3Cl)nc2c1F [Example 14, hydrochloride]
5.6

Per the record, Cc1cccc(C)c1Nc1nc2ccccc2[nH]1 has IC50 of 0.64

Per the record, Cc1cccc2[nH]c(Nc3c(Cl)cccc3Cl)nc12 has IC50 of 0.39

Data point: Cl.Fc1cc(F)c2[nH]c(Nc3c(Cl)cccc3Cl)nc2c1 [Example 15, hydrochloride] ; IC50 = 1.6

Lab note: Brc1cccc(Br)c1Nc1nc2ccccc2[nH]1 [Example 8, trifluoroacetate] gave IC50 of 0.65

For reference, reported IC50 for Oc1ccc2[nH]c(Nc3c(Cl)cccc3Cl)nc2c1 [Example 13, hydrobromide] stands at 1.1

Reported IC50 for Clc1cccc(Cl)c1Nc1nc2ccccc2[nH]1 [Example 1, hydrochloride] was 0.53

For Cc1cccc(Cl)c1Nc1nc2ccccc2[nH]1 [Example 4, hydrochloride] the compound record lists IC50 as 0.49
